- tgt: human neutrophil elastase (HNE) (Homo sapiens, UniProt P08246)
- Construct: purchased Sigma (St. Louis, Mo.)
- Sequence (P08246 30-267): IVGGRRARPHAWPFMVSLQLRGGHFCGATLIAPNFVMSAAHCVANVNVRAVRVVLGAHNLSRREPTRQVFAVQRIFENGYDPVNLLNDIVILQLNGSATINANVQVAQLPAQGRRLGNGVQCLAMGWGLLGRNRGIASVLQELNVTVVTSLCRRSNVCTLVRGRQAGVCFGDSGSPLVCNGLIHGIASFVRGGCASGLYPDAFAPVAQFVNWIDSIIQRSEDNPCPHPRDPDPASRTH
- assay.remarks: Human neutrophil elastase inhibition, spectrophotometric assay with chromogenic p-nitroanilide substrate
- Format: biochemical
- condition.set: individually resynthesised ReO metallopeptides Z-Aaa-Ser-Cys-Val-NH2 (deconvolution of the most active pool)
*: point of attachment. Cbz = O=C(OCc1ccccc1)*

[
  {
    "substance": "Z-Leu-Ser-Cys-Val-NH2 (Cbz-LSCV-NH2; not fully specified; printed as Z-Leu-Ser-Cys-Val-NH2)",
    "unit.name": "µM",
    "inequality.sign": "=",
    "IC50": 139
  },
  {
    "substance": "Z-Lys(N,-Z)-Ser-Cys-Val-NH2",
    "unit.name": "µM",
    "inequality.sign": ">",
    "IC50": 1000
  }
]
